Please respond with reported IC50 for every item in the list.
target: Bcr/Abl fusion protein (Homo sapiens); assay: Inhibition of wild type Bcr-Abl (unknown origin) incubated for 1 hr in presence of ATP by ADP-Glo kinase assay
Numbers only, in nM.

| compound.smiles | IC50 [nM] |
| --- | --- |
| CC(=O)Nc1n[nH]c2cc(-c3cn([C@@H]4CN[C@H](C(=O)Nc5ccc(Br)cc5)C4)nn3)ccc12 | 5.85 |
| O=C(Nc1ccc(-c2cn([C@@H]3CN[C@H](C(=O)Nc4ccc(Cl)c(C(F)(F)F)c4)C3)nn2)cn1)C1CC1 | 0.65 |
| Nc1n[nH]c2cc(-c3cn([C@@H]4CN[C@H](C(=O)Nc5ccc(Cl)c(C(F)(F)F)c5)C4)nn3)ccc12 | 15 |
| CC(C)(C)OC(=O)N1C[C@@H](n2cc(-c3ccc4nc(N)sc4n3)nn2)C[C@H]1C(=O)Nc1ccc(Cl)c(C(F)(F)F)c1 | 10.6 |
| CC(=O)Nc1nc2ccc(-c3cn([C@@H]4CN[C@H](C(=O)Nc5ccc(F)c(F)c5)C4)nn3)nc2s1 | 202 |
| Nc1nc2ccc(-c3cn([C@@H]4CN[C@H](C(=O)Nc5ccc(F)c(F)c5)C4)nn3)nc2s1 | 128 |
| CC(C)(C)OC(=O)N1C[C@@H](n2cc(-c3ccc4nc(N)sc4n3)nn2)C[C@H]1C(=O)Nc1ccc(Br)cc1 | 6.88 |
| O=C(Nc1nc2ccc(-c3cn([C@@H]4CN[C@H](C(=O)Nc5ccc(F)c(F)c5)C4)nn3)nc2s1)C1CC1 | 30.1 |
| CC(=O)Nc1nc2ccc(-c3cn([C@@H]4CN[C@H](C(=O)Nc5ccc(Br)cc5)C4)nn3)nc2s1 | 6.99 |

Now turn to the next compound.
Report measured IC50; entry is CCN(CC)C(=O)c1cncc(-c2cn([C@@H]3CN[C@H](C(=O)Nc4ccc(Cl)c(C(F)(F)F)c4)C3)nn2)c1
14.5

###

For each entry below, report its pIC50 value.
target: Bcr/Abl fusion protein (Homo sapiens, UniProt P00519, T315I); experiment: Inhibition of Bcr-Abl T315I mutant (unknown origin) incubated for 1 hr in presence of ATP by ADP-Glo kinase assay
One number for each entry, as −log10 of the molar value.

| compound.smiles | pIC50 |
| --- | --- |
| O=C(Nc1nc2ccc(-c3cn([C@@H]4CN[C@H](C(=O)Nc5ccc(F)c(F)c5)C4)nn3)nc2s1)C1CC1 | 5.87 |
| CC(C)(C)OC(=O)N1C[C@@H](n2cc(-c3ccc4nc(N)sc4n3)nn2)C[C@H]1C(=O)Nc1ccc(Br)cc1 | 7.60 |
| O=C(Nc1n[nH]c2cc(-c3cn([C@@H]4CN[C@H](C(=O)Nc5ccc(Br)cc5)C4)nn3)ccc12)C1CC1 | 6.84 |

Provide pIC50 value for the following compound: CN(C)CCNC(=O)c1cncc(-c2cn([C@@H]3CN[C@H](C(=O)Nc4ccc(Cl)c(C(F)(F)F)c4)C3)nn2)c1
6.46

###

For each entry below, report its pIC50 value.
molecular target: Bcr/Abl fusion protein (Homo sapiens, UniProt P00519, T315I); experiment: Inhibition of Bcr-Abl T315I mutant (unknown origin) incubated for 1 hr in presence of ATP by ADP-Glo kinase assay
Give bare numbers, as −log10 of the molar value.

// known answers, use as guide
| compound.smiles | pIC50 |
| --- | --- |
| CC(C)(C)OC(=O)N1C[C@@H](n2cc(-c3ccc4nc(N)sc4n3)nn2)C[C@H]1C(=O)Nc1ccc(Cl)cc1Cl | 6.39 |
| Nc1nc2ccc(-c3cn([C@@H]4CN[C@H](C(=O)Nc5ccc(Cl)c(C(F)(F)F)c5)C4)nn3)nc2s1 | 7.61 |
| CC(=O)Nc1nc2ccc(-c3cn([C@@H]4CN[C@H](C(=O)Nc5ccc(F)c(F)c5)C4)nn3)nc2s1 | 5.72 |

Note: attention shifts to another entry.
Please report pIC50 with Bcr/Abl fusion protein (Homo sapiens, UniProt P00519, T315I) for item CC(C)(C)C(=O)Nc1ccc(-c2cn([C@@H]3CN[C@H](C(=O)Nc4ccc(Cl)c(C(F)(F)F)c4)C3)nn2)cn1 .
5.46

###

molecular target: Bcr/Abl fusion protein (Homo sapiens, UniProt P00519); test: Inhibition of wild type Bcr-Abl (unknown origin) incubated for 1 hr in presence of ATP by ADP-Glo kinase assay
Answer each item with its documented pIC50.
Give bare numbers, as −log10 of the molar value.

Past entries and their recorded results:
| compound.smiles | pIC50 |
| --- | --- |
| O=C(Nc1nc2ccc(-c3cn([C@@H]4CN[C@H](C(=O)Nc5ccc(Cl)cc5Cl)C4)nn3)nc2s1)C1CC1 | 9.22 |
| CN(C)CCNC(=O)c1cncc(-c2cn([C@@H]3CN[C@H](C(=O)Nc4ccc(Cl)c(C(F)(F)F)c4)C3)nn2)c1 | 7.53 |
| Nc1nc2ccc(-c3cn([C@@H]4CN[C@H](C(=O)Nc5ccc(Cl)cc5Cl)C4)nn3)nc2s1 | 8.02 |
| Nc1nc2ccc(-c3cn([C@@H]4CN[C@H](C(=O)Nc5ccc(Br)cc5)C4)nn3)nc2s1 | 7.57 |
| Nc1nc2ccc(-c3cn([C@@H]4CN[C@H](C(=O)Nc5ccc(Cl)c(C(F)(F)F)c5)C4)nn3)nc2s1 | 7.81 |
| Nc1ccc(-c2cn([C@@H]3CN[C@H](C(=O)Nc4ccc(Cl)c(C(F)(F)F)c4)C3)nn2)cn1 | 8.51 |

# map each compound to its pIC50
1. CC(=O)Nc1n[nH]c2cc(-c3cn([C@@H]4CN[C@H](C(=O)Nc5ccc(Cl)c(C(F)(F)F)c5)C4)nn3)ccc12
2. CC(=O)Nc1ccc(-c2cn([C@@H]3CN[C@H](C(=O)Nc4ccc(Cl)c(C(F)(F)F)c4)C3)nn2)cn1

7.55
8.46

###

biological target: Bcr/Abl fusion protein (Homo sapiens, UniProt P00519, T315I); experiment: Inhibition of Bcr-Abl T315I mutant (unknown origin) incubated for 1 hr in presence of ATP by ADP-Glo kinase assay
observation.type: IC50

| compound.smiles | result.value |
| --- | --- |
| O=C(Nc1ccc(Cl)c(C(F)(F)F)c1)[C@@H]1C[C@H](n2cc(-c3cncc(C(=O)N4CCOCC4)c3)nn2)CN1 | 801 nM |

Field: IC50. Fill in for each record below.
1. CCN1CCN(c2cc(NC(=O)[C@@H]3C[C@H](n4cc(-c5ccc6c(N)n[nH]c6c5)nn4)CN3)ccc2Cl)CC1
2. O=C(Nc1ccc(-c2cn([C@@H]3CN[C@H](C(=O)Nc4ccc(Cl)c(C(F)(F)F)c4)C3)nn2)cn1)C1CC1
3. Nc1ccc(-c2cn([C@@H]3CN[C@H](C(=O)Nc4ccc(Cl)c(C(F)(F)F)c4)C3)nn2)cn1

1: 84.8 nM; 2: 338 nM; 3: 303 nM

###

biological target: Bcr/Abl fusion protein (Homo sapiens, UniProt P00519, T315I); assay: Inhibition of Bcr-Abl T315I mutant (unknown origin) incubated for 1 hr in presence of ATP by ADP-Glo kinase assay
Labelling field: enter Criterion met if recorded IC50 is less than 200 nM. Enter Criterion not met if it equals or exceeds that cut-off.

Some entries whose results are on file:
| compound.smiles | system.tested | group |
| --- | --- | --- |
| CC(=O)Nc1n[nH]c2cc(-c3cn([C@@H]4CN[C@H](C(=O)Nc5ccc(Br)cc5)C4)nn3)ccc12 | Bcr/Abl fusion protein (Homo sapiens, UniProt P00519, T315I) | Criterion not met |
| CCN(CC)C(=O)c1cncc(-c2cn([C@@H]3CN[C@H](C(=O)Nc4ccc(Cl)c(C(F)(F)F)c4)C3)nn2)c1 | Bcr/Abl fusion protein (Homo sapiens, UniProt P00519, T315I) | Criterion not met |
| CC(C)(C)OC(=O)N1C[C@@H](n2cc(-c3ccc4nc(N)sc4n3)nn2)C[C@H]1C(=O)Nc1ccc(Cl)c(C(F)(F)F)c1 | Bcr/Abl fusion protein (Homo sapiens, UniProt P00519, T315I) | Criterion not met |

IC50 under 200 nM? Item: CC(C)(C)OC(=O)N1C[C@@H](n2cc(-c3ccc4c(N)n[nH]c4c3)nn2)C[C@H]1C(=O)Nc1ccc(Br)cc1
Criterion not met

Does the reported IC50 of CS(=O)(=O)Nc1ccc(-c2cn([C@@H]3CN[C@H](C(=O)Nc4ccc(Cl)c(C(F)(F)F)c4)C3)nn2)cn1 stay below 200 nM?
Criterion met

Hello, is IC50 of the following compound strictly smaller than 200 nM? Nc1nc2ccc(-c3cn([C@@H]4CN[C@H](C(=O)Nc5ccc(Br)cc5)C4)nn3)nc2s1
Criterion met

Given O=C(Nc1n[nH]c2cc(-c3cn([C@@H]4CN[C@H](C(=O)Nc5ccc(Cl)c(C(F)(F)F)c5)C4)nn3)ccc12)C1CC1 , is recorded IC50 strictly lower than 200 nM?
Criterion met
